Tested on: murine TTC39C mRNA
measurement description: Antisense inhibition of mouse TTC39C in mouse primary hepatocytes, single dose
Type: cell-based
assay conditions: 8,000 nM antisense oligonucleotide, electroporation, approximately 24 hours, TTC39C mRNA by real-time PCR (RTS3266), relative to untreated control cells
Description: Antisense oligonucleotides were designed targeting a TTC39C nucleic acid and were tested for their effects on TTC39C mRNA in vitro. […] After a treatment period of approximately 24 hours, RNA was isolated from the cells and TTC39C mRNA levels were measured by quantitative real-time PCR. […] TTC39C mRNA levels were adjusted according to total RNA content, as measured by RIBOGREEN®. […]
Oligonucleotides are written 5' to 3', each unit as a sugar letter and its base; * is a phosphorothioate linkage, no mark a phosphodiester; rarer units and linkages stand in square brackets, end groups in braces. Plain capitals give the bases only. e = 2'-O-(2-methoxyethyl) (MOE); [5mC] = 5-methylcytosine; d = 2'-deoxy (DNA)
Answer each item with its documented % inhibition.
Remember to quote the unit after the number.

Write down the reported % inhibition (system: murine TTC39C mRNA) of ISIS 474543: 5-10-5 MOE gapmer antisense oligonucleotide targeting murine TTC39C (antisense e[5mC]*e[5mC]*eA*eG*eG*dT*dG*dG*d[5mC]*dT*dT*dT*dG*dG*d[5mC]*eT*eT*eG*eG*eG)
98%

Please respond with reported % inhibition (system murine TTC39C mRNA) for ISIS 474666: 5-10-5 MOE gapmer antisense oligonucleotide targeting murine TTC39C (antisense e[5mC]*eA*eA*eT*e[5mC]*dA*dT*dG*d[5mC]*dT*dG*d[5mC]*dA*d[5mC]*d[5mC]*eA*eG*e[5mC]*e[5mC]*eT) .
95%

Quote % inhibition with test system murine TTC39C mRNA for ISIS 474535: 5-10-5 MOE gapmer antisense oligonucleotide targeting murine TTC39C (antisense eT*e[5mC]*e[5mC]*eA*e[5mC]*dT*dT*d[5mC]*dA*dT*dG*dG*d[5mC]*dA*dA*eG*e[5mC]*eT*eT*eG)
96%

Would you please give the reported % inhibition of ISIS 474538: 5-10-5 MOE gapmer antisense oligonucleotide targeting murine TTC39C (antisense eT*eA*eG*e[5mC]*eA*d[5mC]*dG*d[5mC]*dA*dT*dA*dT*dG*dG*d[5mC]*eG*eG*eG*eA*e[5mC]) with murine TTC39C mRNA?
96%

---

Could you please report measured % inhibition for the items listed next?
System: murine TTC39C mRNA
measurement description: Antisense inhibition of mouse TTC39C in mouse primary hepatocytes, single dose
Type: cell-based
assay conditions: 8,000 nM antisense oligonucleotide, electroporation, approximately 24 hours, TTC39C mRNA by real-time PCR (RTS3266), relative to untreated control cells
Oligonucleotides are written 5' to 3', each unit as a sugar letter and its base; * is a phosphorothioate linkage, no mark a phosphodiester; rarer units and linkages stand in square brackets, end groups in braces. Plain capitals give the bases only. e = 2'-O-(2-methoxyethyl) (MOE); [5mC] = 5-methylcytosine; d = 2'-deoxy (DNA)
Write the answer as a number in %, unit excluded.

Provide measured % inhibition value, entry: ISIS 474610: 5-10-5 MOE gapmer antisense oligonucleotide targeting murine TTC39C (antisense eT*eT*eA*eA*eG*dA*dA*d[5mC]*dA*dA*dG*dT*dT*dG*dT*eG*e[5mC]*e[5mC]*e[5mC]*e[5mC])
90

Respond only with % inhibition recorded for ISIS 474609: 5-10-5 MOE gapmer antisense oligonucleotide targeting murine TTC39C (antisense e[5mC]*eG*eT*eA*eG*dT*dA*dG*d[5mC]*dA*d[5mC]*dT*dG*dG*dG*eA*e[5mC]*e[5mC]*eA*e[5mC])
95

---

System: murine TTC39C mRNA
measurement description: Dose-dependent antisense inhibition of murine TTC39C in mouse primary hepatocytes
Type: cell-based
assay conditions: 500.0 nM, electroporation, ~16 h
Experimental: Thirty antisense oligonucleotides were selected from the study described in Example 8 and further tested at various doses in mouse primary hepatocytes. […] After a treatment period of approximately 16 hours, RNA was isolated from the cells and TTC39C mRNA levels were measured by quantitative real-time PCR. […] TTC39C mRNA levels were adjusted according to total RNA content, as measured by RIBOGREEN®. […]
Oligonucleotides are written 5' to 3', each unit as a sugar letter and its base; * is a phosphorothioate linkage, no mark a phosphodiester; rarer units and linkages stand in square brackets, end groups in braces. Plain capitals give the bases only. e = 2'-O-(2-methoxyethyl) (MOE); [5mC] = 5-methylcytosine; d = 2'-deoxy (DNA)
I'd appreciate it if you could supply percent inhibition of TTC39C mRNA values for the items below.
Please give a number only; it is taken to be in %.

Look up and report measured percent inhibition of TTC39C mRNA for this entry: ISIS 474610: 5-10-5 MOE gapmer antisense oligonucleotide targeting murine TTC39C (antisense eT*eT*eA*eA*eG*dA*dA*d[5mC]*dA*dA*dG*dT*dT*dG*dT*eG*e[5mC]*e[5mC]*e[5mC]*e[5mC])
10

Query percent inhibition of TTC39C mRNA for ISIS 474629: 5-10-5 MOE gapmer antisense oligonucleotide targeting murine TTC39C (antisense eG*eA*eT*e[5mC]*eA*d[5mC]*dT*dG*d[5mC]*d[5mC]*dG*dT*d[5mC]*d[5mC]*dA*eA*eA*eG*e[5mC]*eA)
16

Return value of percent inhibition of TTC39C mRNA for input ISIS 474543: 5-10-5 MOE gapmer antisense oligonucleotide targeting murine TTC39C (antisense e[5mC]*e[5mC]*eA*eG*eG*dT*dG*dG*d[5mC]*dT*dT*dT*dG*dG*d[5mC]*eT*eT*eG*eG*eG) , no commentary.
77

Provide measured percent inhibition of TTC39C mRNA value, entry: ISIS 474607: 5-10-5 MOE gapmer antisense oligonucleotide targeting murine TTC39C (antisense eT*e[5mC]*eA*eA*eT*d[5mC]*dA*dT*dG*d[5mC]*dT*dG*d[5mC]*dA*d[5mC]*e[5mC]*eA*eG*e[5mC]*e[5mC])
40

Give percent inhibition of TTC39C mRNA for ISIS 474517: 5-10-5 MOE gapmer antisense oligonucleotide targeting murine TTC39C (antisense e[5mC]*e[5mC]*eT*e[5mC]*eG*dA*dA*dT*dG*dT*d[5mC]*dA*dT*d[5mC]*dA*eT*eG*eG*e[5mC]*eG)
60

For the substance ISIS 474615: 5-10-5 MOE gapmer antisense oligonucleotide targeting murine TTC39C (antisense eG*eT*eA*e[5mC]*eG*dA*dG*dT*dT*dA*d[5mC]*dT*d[5mC]*dT*dG*e[5mC]*e[5mC]*eG*eA*e[5mC]) , give its reported percent inhibition of TTC39C mRNA.
33

Give a short answer stating reported percent inhibition of TTC39C mRNA for ISIS 474601: 5-10-5 MOE gapmer antisense oligonucleotide targeting murine TTC39C (antisense eG*eG*e[5mC]*e[5mC]*eA*dT*dA*dT*d[5mC]*d[5mC]*dA*dA*dA*dG*d[5mC]*eT*e[5mC]*eA*e[5mC]*eA) .
36

Give percent inhibition of TTC39C mRNA for ISIS 474613: 5-10-5 MOE gapmer antisense oligonucleotide targeting murine TTC39C (antisense eT*eG*e[5mC]*eT*eT*dT*dA*dA*dT*d[5mC]*d[5mC]*dA*dA*d[5mC]*dG*eA*e[5mC]*eA*eG*eA)
30

# return recorded percent inhibition of TTC39C mRNA for entry ISIS 474538: 5-10-5 MOE gapmer antisense oligonucleotide targeting murine TTC39C (antisense eT*eA*eG*e[5mC]*eA*d[5mC]*dG*d[5mC]*dA*dT*dA*dT*dG*dG*d[5mC]*eG*eG*eG*eA*e[5mC])
51

State its percent inhibition of TTC39C mRNA: ISIS 474598: 5-10-5 MOE gapmer antisense oligonucleotide targeting murine TTC39C (antisense e[5mC]*e[5mC]*e[5mC]*eA*e[5mC]*d[5mC]*dT*dT*dT*dT*dA*dT*dG*dT*dA*eG*eG*e[5mC]*e[5mC]*eG)
40

Given ISIS 474535: 5-10-5 MOE gapmer antisense oligonucleotide targeting murine TTC39C (antisense eT*e[5mC]*e[5mC]*eA*e[5mC]*dT*dT*d[5mC]*dA*dT*dG*dG*d[5mC]*dA*dA*eG*e[5mC]*eT*eT*eG) , respond with its percent inhibition of TTC39C mRNA.
18

Report measured percent inhibition of TTC39C mRNA; entry is ISIS 474599: 5-10-5 MOE gapmer antisense oligonucleotide targeting murine TTC39C (antisense e[5mC]*eG*eT*eT*eG*dA*dT*dG*dT*d[5mC]*d[5mC]*dA*d[5mC]*dA*dT*eA*eG*e[5mC]*eA*e[5mC])
36

Given the substance ISIS 474518: 5-10-5 MOE gapmer antisense oligonucleotide targeting murine TTC39C (antisense eG*eT*eA*eG*eT*d[5mC]*dT*dT*dT*dA*dA*dG*dT*d[5mC]*dA*eT*e[5mC]*eG*e[5mC]*eA) , write its reported percent inhibition of TTC39C mRNA.
61

Please report the measured percent inhibition of TTC39C mRNA for ISIS 474532: 5-10-5 MOE gapmer antisense oligonucleotide targeting murine TTC39C (antisense eG*eT*eT*eG*eT*dG*d[5mC]*d[5mC]*d[5mC]*d[5mC]*dA*dT*d[5mC]*d[5mC]*dA*e[5mC]*eA*eT*e[5mC]*eA)
51

Tell me measured percent inhibition of TTC39C mRNA for ISIS 474604: 5-10-5 MOE gapmer antisense oligonucleotide targeting murine TTC39C (antisense eT*eG*eT*e[5mC]*eA*d[5mC]*dT*dG*d[5mC]*d[5mC]*dG*dT*d[5mC]*d[5mC]*dA*eA*eA*eG*e[5mC]*eA) please.
43

Give the reported value of percent inhibition of TTC39C mRNA for this record: ISIS 474600: 5-10-5 MOE gapmer antisense oligonucleotide targeting murine TTC39C (antisense e[5mC]*e[5mC]*eA*eA*eG*dG*dG*d[5mC]*dT*d[5mC]*dT*dT*d[5mC]*d[5mC]*dG*eT*e[5mC]*eA*eG*e[5mC])
47
